biological target: UniProt P17252; assay: Displacement of [20-3H] phorbol 12, 13-dibutylate from recombinant PKCalpha (unknown origin) in presence of nuclear membrane mimetic lipid mixture; type: cell membranes
Range-based classes on measured Ki: low (below 40 nM), moderate (40 nM to below 60 nM), high (60 nM or more)

compound: CCCCCC=CCC=CCCCCCCCC(=O)OCC1(CO)C/C(=C\CC(C)C)C(=O)O1 (centres undefined)
cat: low
//
compound: CCCCCC=CCC=CCCCCCCCC(=O)OCC1(CO)C/C(=C/CC(C)C)C(=O)O1 (centres undefined)
cat: low
//
compound: CCCCCCCCC#CCCCCCCCC(=O)OCC1(CO)C/C(=C\CC(C)C)C(=O)O1 (centres undefined)
cat: moderate
//
compound: CCCCCCCCC#CCCCCCCCC(=O)OCC1(CO)C/C(=C/CC(C)C)C(=O)O1 (centres undefined)
cat: low
//
compound: CC(C)C/C=C1\CC(CO)(COC(=O)CC(CC(C)C)CC(C)C)OC1=O (centres undefined)
cat: low
//
compound: CCCCCCCCCCCCCCCCCC(=O)OCC1(CO)C/C(=C/CC(C)C)C(=O)O1 (centres undefined)
cat: high
//
compound: CCCCCC1CC1CC1CC1CCCCCCC/C=C1/CC(CO)(COC(=O)C(C)(C)C)OC1=O (centres undefined)
cat: high
//
compound: CC(C)C/C=C1/CC(CO)(COC(=O)CC(CC(C)C)CC(C)C)OC1=O (centres undefined)
cat: moderate
//
compound: CCCCCC1OC1CC1OC1CCCCCCCC(=O)OCC1(CO)C/C(=C\CC(C)C)C(=O)O1 (centres undefined)
cat: high
//
compound: CC(C)CC(C/C=C1\CC(CO)(COC(=O)C(C)(C)C)OC1=O)CC(C)C (centres undefined)
cat: moderate
//
compound: CCCCC/C=C\C/C=C\CCCCCCC/C=C1\CC(CO)(COC(=O)C(C)(C)C)OC1=O (centres undefined)
cat: low
//
compound: CCCCCCC#CC#CCCCCCCCC(=O)OCC1(CO)C/C(=C/CC(C)C)C(=O)O1 (centres undefined)
cat: moderate
//
compound: CCCCCC1CC1CC1CC1CCCCCCC/C=C1\CC(CO)(COC(=O)C(C)(C)C)OC1=O (centres undefined)
cat: high
//
compound: CCCCC/C=C\C/C=C\CCCCCCC/C=C1/CC(CO)(COC(=O)C(C)(C)C)OC1=O (centres undefined)
cat: low
//
compound: CCCCCCCCCCCCCCCCCC(=O)OCC1(CO)C/C(=C\CC(C)C)C(=O)O1 (centres undefined)
cat: high
//
compound: CCCCCC1CC1CC1CC1CCCCCCCC(=O)OCC1(CO)C/C(=C/CC(C)C)C(=O)O1 (centres undefined)
cat: moderate
//
compound: CCCCCC1OC1CC1OC1CCCCCCCC(=O)OCC1(CO)C/C(=C/CC(C)C)C(=O)O1 (centres undefined)
cat: high

---

species: Homo sapiens; test: Selectivity index, ratio of Ki for recombinant PKCalpha (unknown origin) in presence of 100 ug/ml 100% phosphatidylserine to Ki for recombinant PKCepsilon (unknown origin) in presence of 100 ug/ml 100% phosphatidylserine
recordedMetric: Ratio Ki

compound: CCCCCCC#CC#CCCCCCCCC(=O)OCC1(CO)C/C(=C/CC(C)C)C(=O)O1 (stereo not given)
experimentalValue: 0.7
//
compound: CCCCCCCCC#CCCCCCCCC(=O)OCC1(CO)C/C(=C/CC(C)C)C(=O)O1 (stereo not given)
experimentalValue: 1.8
//
compound: CCCCCC1OC1CC1OC1CCCCCCCC(=O)OCC1(CO)C/C(=C\CC(C)C)C(=O)O1 (stereo not given)
experimentalValue: 1.8
//
compound: CCCCCC1CC1CC1CC1CCCCCCC/C=C1/CC(CO)(COC(=O)C(C)(C)C)OC1=O (stereo not given)
experimentalValue: 2.2
//
compound: CCCCCC1CC1CC1CC1CCCCCCCC(=O)OCC1(CO)C/C(=C/CC(C)C)C(=O)O1 (stereo not given)
experimentalValue: 1.6

---

The reader will find reported Ratio Ki values listed item by item below.
species: Homo sapiens; assay: Selectivity index, ratio of Ki for recombinant PKCalpha (unknown origin) in presence of 100 ug/ml 100% phosphatidylserine to Ki for recombinant PKCepsilon (unknown origin) in presence of 100 ug/ml 100% phosphatidylserine

compound: CCCCCCCCCCCCCCCCCC(=O)OCC1(CO)C/C(=C/CC(C)C)C(=O)O1 (centres undefined)
Ratio Ki: 2.3
--
compound: CCCCCC=CCC=CCCCCCCCC(=O)OCC1(CO)C/C(=C/CC(C)C)C(=O)O1 (centres undefined)
Ratio Ki: 0.6
--
compound: CCCCCCCCC#CCCCCCCCC(=O)OCC1(CO)C/C(=C\CC(C)C)C(=O)O1 (centres undefined)
Ratio Ki: 1.8
--
compound: CCCCC/C=C\C/C=C\CCCCCCC/C=C1\CC(CO)(COC(=O)C(C)(C)C)OC1=O (centres undefined)
Ratio Ki: 2
--
compound: CCCCCC1OC1CC1OC1CCCCCCCC(=O)OCC1(CO)C/C(=C/CC(C)C)C(=O)O1 (centres undefined)
Ratio Ki: 1
--
compound: CCCCCCC#CC#CCCCCCCCC(=O)OCC1(CO)C/C(=C\CC(C)C)C(=O)O1 (centres undefined)
Ratio Ki: 1.6
--
compound: CCCCC/C=C\C/C=C\CCCCCCC/C=C1/CC(CO)(COC(=O)C(C)(C)C)OC1=O (centres undefined)
Ratio Ki: 1.4
--
compound: CC(C)CC(C/C=C1\CC(CO)(COC(=O)C(C)(C)C)OC1=O)CC(C)C (centres undefined)
Ratio Ki: 8.1
--
compound: CCCCCC=CCC=CCCCCCCCC(=O)OCC1(CO)C/C(=C\CC(C)C)C(=O)O1 (centres undefined)
Ratio Ki: 2

---

molecular target: Protein kinase C alpha type (Homo sapiens); experiment: Displacement of [20-3H] phorbol 12, 13-dibutylate from recombinant PKCalpha (unknown origin) in presence of 100 ug/ml 100% phosphatidylserine
pKi: −log10 of the molar value.
recordedMetric: pKi

molecule: CC(C)C/C=C1/CC(CO)(COC(=O)CC(CC(C)C)CC(C)C)OC1=O (centres undefined)
experimentalValue: 8.32
//
molecule: CCCCCC1OC1CC1OC1CCCCCCCC(=O)OCC1(CO)C/C(=C/CC(C)C)C(=O)O1 (centres undefined)
experimentalValue: 7.78
//
molecule: CCCCCC1CC1CC1CC1CCCCCCC/C=C1/CC(CO)(COC(=O)C(C)(C)C)OC1=O (centres undefined)
experimentalValue: 7.48
//
molecule: CCCCCCC#CC#CCCCCCCCC(=O)OCC1(CO)C/C(=C\CC(C)C)C(=O)O1 (centres undefined)
experimentalValue: 8.08
//
molecule: CCCCCC=CCC=CCCCCCCCC(=O)OCC1(CO)C/C(=C\CC(C)C)C(=O)O1 (centres undefined)
experimentalValue: 8.36
//
molecule: CCCCCC1CC1CC1CC1CCCCCCCC(=O)OCC1(CO)C/C(=C/CC(C)C)C(=O)O1 (centres undefined)
experimentalValue: 7.81
//
molecule: CCCCC/C=C\C/C=C\CCCCCCC/C=C1\CC(CO)(COC(=O)C(C)(C)C)OC1=O (centres undefined)
experimentalValue: 8.08
//
molecule: CC(C)C/C=C1\CC(CO)(COC(=O)CC(CC(C)C)CC(C)C)OC1=O (centres undefined)
experimentalValue: 8.56
//
molecule: CCCCCCCCC#CCCCCCCCC(=O)OCC1(CO)C/C(=C\CC(C)C)C(=O)O1 (centres undefined)
experimentalValue: 8.06

---

assay: Lipophilicity, log P of the compound; type: physicochemical; settings: octanol/water; read-out: logP
Please use Fulfilled for logP under 8 and Not fulfilled for everything else, ties included.

compound: CC(C)C/C=C1\CC(CO)(COC(=O)CC(CC(C)C)CC(C)C)OC1=O (centres undefined)
cat: Fulfilled
//
compound: CCCCC/C=C\C/C=C\CCCCCCC/C=C1/CC(CO)(COC(=O)C(C)(C)C)OC1=O (centres undefined)
cat: Not fulfilled
//
compound: CCCCCCCCCCCCCCCCCC(=O)OCC1(CO)C/C(=C/CC(C)C)C(=O)O1 (centres undefined)
cat: Not fulfilled
//
compound: CCCCC/C=C\C/C=C\CCCCCCC/C=C1\CC(CO)(COC(=O)C(C)(C)C)OC1=O (centres undefined)
cat: Not fulfilled
//
compound: CCCCCC1OC1CC1OC1CCCCCCCC(=O)OCC1(CO)C/C(=C/CC(C)C)C(=O)O1 (centres undefined)
cat: Fulfilled
//
compound: CCCCCC=CCC=CCCCCCCCC(=O)OCC1(CO)C/C(=C\CC(C)C)C(=O)O1 (centres undefined)
cat: Not fulfilled
//
compound: CCCCCC1OC1CC1OC1CCCCCCCC(=O)OCC1(CO)C/C(=C\CC(C)C)C(=O)O1 (centres undefined)
cat: Fulfilled
//
compound: CCCCCCCCCCCCCCCCCC(=O)OCC1(CO)C/C(=C\CC(C)C)C(=O)O1 (centres undefined)
cat: Not fulfilled
//
compound: CC(C)C/C=C1/CC(CO)(COC(=O)CC(CC(C)C)CC(C)C)OC1=O (centres undefined)
cat: Fulfilled
//
compound: CCCCCC=CCC=CCCCCCCCC(=O)OCC1(CO)C/C(=C/CC(C)C)C(=O)O1 (centres undefined)
cat: Not fulfilled
